- tested.on: T1, IGF-1R, insulin-like growth factor 1 receptor (human, UniProt P08069 31-1367)
- T1 construct: On IGF-IR transfected 3T3 cells (hIGF-1R-3T3) in cell ELISA, or from their extracts in pull-downs (detected through the beta subunit); The entry is the precursor; the processing into alpha and beta subunits is not described; also called IGF-IR; IGF-1 receptor
- assay.info: saturation binding to IGF-IR 3T3 cells, herstatin ELISA (determination of EXAMPLE 2)
readout: pKd
Schema: pKd number; meaning minus log10 of the concentration expressed in molar units.

stdin: Let me know recorded pKd for RBD Int8 polypeptide (intron 8-encoded receptor binding domain of herstatin, expressed as a bacterial peptide) (Purified from BL-21 bacteria; also called Int8 RBD polypeptide; Int8 peptide; not shown: pET 30 vector-encoded tags (His tag used for nickel purification, S-protein tag used for immobilisation)) GTHSLPPRPAAVPVPLRMQPGPAHPVLSFLRPSWDLVSAFYSLPLAPLSPTSVPISPVSVGRGPDPDAHVAVDLSRYEG , thanks.
stdout: 7.40

This collection of values is drawn from patent US20050272637A1.
